system: CAKI-1 renal; assay: NCI tumour cell line growth inhibition, 48 h
experimental-readout: TGI (µM)
Entry rule: numbers only, all in µM.

Some molecules with known TGI results, for comparison:
[[record]]
molecule = "CCOP(=O)(CCCC(O)CNc1nc(N)nc(Cl)c1N=Nc1ccc(Cl)cc1)OCC (configuration not stated)"
measured_result = 13.9

[[record]]
molecule = "CCc1ccccc1NC(=O)C(C#N)C1=C(Cl)C(=O)c2ccccc2C1=O (configuration not stated)"
measured_result = 45.6


Consider the record given below.
Report TGI for Oc1c(CN2CCCC2)ccc2cccnc12 please.
60.8

---

test system: HOP-92 NSCLC; experiment: NCI tumour cell line growth inhibition, 48 h
experimental-readout: TGI (µM)
Entry rule: numbers only, all in µM.

Some molecules with known TGI results, for comparison:
[[record]]
molecule = "C=C(C)[C@@H](O)[C@H](O)C[C@H](C)C1CC[C@]2(C)C1=CC[C@@H]1[C@@]3(C)CC[C@@H](OC(C)=O)C(C)(C)[C@@H]3C[C@@H](OC3OC(COC(C)=O)C(O)C(O)C3O)[C@]12C (some centres undefined)"
experimental_readout = "TGI"
measured_result = 6.17

[[record]]
molecule = "O=C(c1ccccc1)N1CCN(C(=S)NC2CCCCC2)C1=S"
experimental_readout = "TGI"
measured_result = 36.7

[[record]]
molecule = "O=c1cc(-c2ccccc2)[nH]c2ncccc12"
experimental_readout = "TGI"
measured_result = 7.54

[[record]]
molecule = "COC(=O)C12CCC(C)(C)CC1C1=CCC3C4(C)CC(O)C(O)C(C)(C(=O)OC)C4CCC3(C)C1(CO)CC2 (centres undefined)"
experimental_readout = "TGI"
measured_result = 29.1


Consider the record given below.
Report TGI for CCOP(=O)(CCCC(O)CNc1nc(N)nc(Cl)c1N=Nc1ccc(Cl)cc1)OCC (centres undefined) please.
25.8

---

tested on: HOP-92 NSCLC; assay: NCI tumour cell line growth inhibition, 48 h
This section presents molecules with their documented GI50 values.

Some molecules with known GI50 results, for comparison:
[[record]]
molecule = "COC1=CC(c2ccc[nH]2)=N/C1=C\\c1[nH]c(C)c(C(=O)CCC(=O)Oc2ccc3c(c2)CCC2C3CC[C@]3(C)[C@@H](O)CC[C@@H]23)c1C (stereo partly specified)"
target_or_system = "HOP-92 NSCLC"
measured_result = "1450 nM"

[[record]]
molecule = "O=C(/C=C/C12c3ccccc3C(c3ccccc31)C1C(=O)N(c3ccc(Cl)cc3)C(=O)C12)c1ccccn1 (stereo unspecified)"
target_or_system = "HOP-92 NSCLC"
measured_result = "452 nM"

[[record]]
molecule = "CN1CCN(C(=O)[C@@]2(C)CC[C@]3(C)CC[C@]4(C)C(=CC[C@@H]5[C@@]6(C)CCC(=O)NC(C)(C)[C@@H]6CC[C@]54C)[C@@H]3C2)CC1"
target_or_system = "HOP-92 NSCLC"
measured_result = "1050 nM"

[[record]]
molecule = "CC1(C)CC(=O)C=C(/C=C/Sc2c(Cl)c(Cl)nc(Cl)c2Cl)C1"
target_or_system = "HOP-92 NSCLC"
measured_result = "16700 nM"

[[record]]
molecule = "N#Cc1c(NCc2ccccc2)nc(NCc2ccccc2)c(C#N)c1-c1ccc(Cl)cc1"
target_or_system = "HOP-92 NSCLC"
measured_result = "> 50000 nM"


Consider the record given below.
Report GI50 for CS(=O)(=O)N1CCC(n2c(=O)c(Oc3ccc(F)cc3F)cc3cnc(NC4CCOCC4)nc32)CC1 please.
> 25000 nM
